Experiment: Cytotoxicity against HSF cells assessed as growth inhibition at 100 ug/mL incubated for 48 hrs by SRB assay relative to control
Format: toxicity, cell-based
Conditions: human, at 100 µg/mL, read-out: GI
The following compounds are listed with their measured inhibition at 48 h, 100 ug/mL values.
Please make sure the unit comes right after the number.

| Structure Smiles String | inhibition at 48 h, 100 ug/mL |
| --- | --- |
| COc1cccc(/C=N/NC(=O)c2nnn(-c3ccc(Cl)cc3)c2C)c1OC | 25% |

**Query** Return reported inhibition at 48 h, 100 ug/mL; argument: "COc1ccc(/C=N/NC(=O)c2nnn(-c3ccc(Br)cc3)c2C)cc1OC"
**Result** 20%

**Query** Return reported inhibition at 48 h, 100 ug/mL; argument: "COc1cccc2c1C(=O)c1c(O)c3c(c(O)c1C2=O)C[C@@](O)(C(=O)CO)C[C@@H]3O[C@H]1C[C@H](N)[C@H](O)[C@H](C)O1"
**Result** 42%

----------
The following molecules are listed with their measured inhibition of growth at 100 µg/mL values.
Tested on: Huh-7
Experiment: Antiproliferative activity against human Huh-7 cells assessed as growth inhibition at 100 ug/mL incubated for 48 hrs by SRB assay relative to control
Type: functional
Details: read-out: GI
// return numeric value only (unit: %, not printed)

**Query** Return reported inhibition of growth at 100 µg/mL; argument: "COc1ccc(/C=N/NC(=O)c2nnn(-c3ccc(Br)cc3)c2C)cc1OC"
**Result** 53

**Query** Return reported inhibition of growth at 100 µg/mL; argument: "COc1cc(/C=N/NC(=O)c2nnn(-c3ccc([N+](=O)[O-])cc3)c2C)cc(OC)c1OC"
**Result** 74

**Query** Return reported inhibition of growth at 100 µg/mL; argument: "COc1cc(/C=N/NC(=O)c2nnn(-c3ccc(F)cc3)c2C)cc(OC)c1OC"
**Result** 75

**Query** Return reported inhibition of growth at 100 µg/mL; argument: "COc1ccc(/C=N/NC(=O)c2nnn(-c3ccc(F)cc3)c2C)cc1OC"
**Result** 65

----------
The following compounds are listed with their measured inhibition of growth at 100 µg/mL values.
System: MCF7
Experiment: Antiproliferative activity against human MCF7 cells assessed as growth inhibition at 100 ug/mL incubated for 48 hrs by SRB assay relative to control
Format: functional
Conditions: read-out: GI
// return numeric value only (unit: %, not printed)

Here are 2 compounds together with their reported answers.
| Compound | Tested Target | inhibition of growth at 100 µg/mL, % |
| --- | --- | --- |
| COc1ccc(/C=N/NC(=O)c2nnn(-c3ccc(F)cc3)c2C)cc1OC | MCF7 | 87 |
| COc1cccc2c1C(=O)c1c(O)c3c(c(O)c1C2=O)C[C@@](O)(C(=O)CO)C[C@@H]3O[C@H]1C[C@H](N)[C@H](O)[C@H](C)O1 [DOXORUBICIN] | MCF7 | 69 |

Here's the next entry for you.
**Query** Tell me reported inhibition of growth at 100 µg/mL for "COc1ccc(/C=N/NC(=O)c2nnn(-c3ccc(Br)cc3)c2C)cc1OC" , tested with MCF7.
**Result** 86

----------
Assay: Antiproliferative activity against human HNO 97 cell line assessed as growth inhibition at 100 ug/mL incubated for 48 hrs by SRB assay relative to control
Assay type: functional
Settings: read-out: GI
The following compounds are listed with their measured inhibition of growth at 100 µg/mL values.
// return numeric value only (unit: %, not printed)

| Structure Smiles String | Measurement Units | Number |
| --- | --- | --- |
| Cc1c(C(=O)N/N=C/c2ccccc2)nnn1-c1ccc(F)cc1 | % | 74 |
| COc1cccc(/C=N/NC(=O)c2nnn(-c3ccc(Br)cc3)c2C)c1OC | % | 77 |

**Query** Return reported inhibition of growth at 100 µg/mL; argument: "COc1cccc(/C=N/NC(=O)c2nnn(-c3ccc([N+](=O)[O-])cc3)c2C)c1OC"
**Result** 54

**Query** Return reported inhibition of growth at 100 µg/mL; argument: "COc1cc(/C=N/NC(=O)c2nnn(-c3ccc(Br)cc3)c2C)cc(OC)c1OC"
**Result** 68

**Query** Return reported inhibition of growth at 100 µg/mL; argument: "COc1cccc(/C=N/NC(=O)c2nnn(-c3ccc(Cl)cc3)c2C)c1OC"
**Result** 72

**Query** Return reported inhibition of growth at 100 µg/mL; argument: "Cc1c(C(=O)N/N=C/c2ccccc2)nnn1-c1ccc(Br)cc1"
**Result** 89

**Query** Return reported inhibition of growth at 100 µg/mL; argument: "COc1ccc(/C=N/NC(=O)c2nnn(-c3ccc(Br)cc3)c2C)cc1OC"
**Result** 86

**Query** Return reported inhibition of growth at 100 µg/mL; argument: "COc1ccc(/C=N/NC(=O)c2nnn(-c3ccc(F)cc3)c2C)cc1OC"
**Result** 84

Taken from ChEMBL document CHEMBL6182834.
